Ratio AB invention/chimeric 12G4 by entry:
Molecular target: T1, AMHR-II/Fc fusion protein (human, UniProt Q16671 18-149, limits assumed)
T1 construct: also called AMHR-II recombinant receptor expressed in the form of fusion protein with a region Fc; recombinant target; not shown: Fc region
T1 sequence (Q16671 18-149 limits assumed): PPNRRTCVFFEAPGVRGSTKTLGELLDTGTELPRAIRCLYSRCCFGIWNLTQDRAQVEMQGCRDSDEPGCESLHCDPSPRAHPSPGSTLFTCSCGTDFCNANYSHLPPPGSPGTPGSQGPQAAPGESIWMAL
Assay: phage-scFv ELISA on AMHRII-Fc; mean of at least four values, standard deviation in parentheses

Binder: 4F_196 (mutated huLFB112 phage-scFv clone) (scFv, part only; not given: scFv linker and phage partner, V domains shown, not shown: another chain or arm of the molecule; large carriers; small tags and cut ends) VH: QVELVQSGAEVKKPGASVKVSCKASGYTFTSYHIHWVRQAPGQRLEWMGWIYPGDDSTKYSRKFQGRVTITRDTSASTAYMELSSLRSDDTAVYYCTRGDRFAYWGQGTLVTVSS VL: DIQMTQSPSTLSASVGDRVTITCRASSSVRYIAWYQQKPGKAPKLLIYSTSSLESGVPSRFSGSGSGTEFTLTISSLQPDDFATYYCLQWSSYPWTFGGGTKVEIK
Ratio AB invention/chimeric 12G4: 1.5
--
Binder: 4F_169 (mutated huLFB112 phage-scFv clone) (scFv, V domains shown, scFv on M13 phage, tested as culture supernatant; Q6E: TAG codon suppressed, translated to E in E. coli XL1-blue; not shown: The 15-residue scFv peptide linker (positions 116-130 of the scFv numbering) and the M13 phage display partner) VH: QVQLVESGAEVKKPGASVKVSCKASGYTFTSYHIHWVRQAPGQRLEWMGWIYPGDDSAKYSQKFQGRVTITRDTSASTAYMELSSLRSEDTAVYYCTRGDRFAYWGQGTLVTVSS VL: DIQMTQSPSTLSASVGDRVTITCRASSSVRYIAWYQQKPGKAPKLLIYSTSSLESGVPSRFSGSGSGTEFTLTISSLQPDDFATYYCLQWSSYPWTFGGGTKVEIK
Ratio AB invention/chimeric 12G4: 1
--
Binder: 5A_66 (mutated huLFB112 phage-scFv clone) (scFv, V domains shown, scFv on M13 phage, tested as culture supernatant; not shown: The 15-residue scFv peptide linker (positions 116-130 of the scFv numbering) and the M13 phage display partner) VH: QVQLVQSGAEVKKPGASVKVSCKASGYTFTSYHIHWVRQAPGQRLEWMGWIYPGDDSTKYSQKFQGRMTITRDTSASTAYMELSSLRSEDTAVYYCTRGDRFAYWGQGTLVTVSS VL: DIQMTQSPSTLSASVGDRVTITCRASSSVRYIAWYQQKPGKAPKLLIYSTSSLESGVPSRFSGSGSGTEFTLTISSLQPDDSATYYCLQWSSYPWTFGGGTKVEIK
Ratio AB invention/chimeric 12G4: 1.1
--
Binder: 6A_80 (mutated huLFB112 phage-scFv clone) (scFv, V domains shown, scFv on M13 phage, tested as culture supernatant; Q62E: TAG codon suppressed, translated to E in E. coli XL1-blue; not shown: The 15-residue scFv linker (positions 116-130 of the scFv numbering) and the M13 phage display partner) VH: QVQLVQSGAEVKKPGASVKVSCKVSGYTFTSYHIHWVRQAPGQRLEWMGWIYPGDDSTKYSEKFQGRVTITRDTSASTAYMELSSLRSEDTAVYYCTRGDRFAYWGQGTLVTVSS VL: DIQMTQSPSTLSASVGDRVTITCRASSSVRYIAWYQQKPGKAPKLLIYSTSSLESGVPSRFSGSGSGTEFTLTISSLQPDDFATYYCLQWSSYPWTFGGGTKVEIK
Ratio AB invention/chimeric 12G4: 1.3
--
Binder: 5A_28 (mutated huLFB112 phage-scFv clone) (scFv, V domains shown, scFv on M13 phage, tested as culture supernatant; not shown: The 15-residue scFv linker (positions 116-130 of the scFv numbering) and the M13 phage display partner) VH: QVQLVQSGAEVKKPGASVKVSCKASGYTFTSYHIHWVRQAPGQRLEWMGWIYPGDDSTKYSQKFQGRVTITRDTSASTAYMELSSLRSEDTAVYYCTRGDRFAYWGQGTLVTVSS VL: DIQMTQSPSTLSASVGDRVTITCRASSSVRYIAWYQQKPGKAPKLLIHPTSSLESGVPSRFSGSGSGTEFTLTISSLQPDDFATYYCLQWSSYPWTFGGGTKVEIK
Ratio AB invention/chimeric 12G4: 0.8
